- Test protocol: Cellular viability qHTS for adrenocortical cancer (ACC) cell line NCI-H295R (AID 1963990); further: nearly all actives have a fitted effect of over 60% in size; further: potency means the concentration at half of the fitted maximal effect
- Study conditions: CellTiter-Glo ATP luminescence, 48 h; series mostly up to 46.1 µM
- Description: PI: Naris Nilubol, MD Surgical Oncology Program, National Cancer Institute (NCI) National Institute of Health (NIH), Bethesda, Maryland Adrenocortical cancer (ACC) is a rare malignancy with poor survival outcomes and few treatment options. Currently, mitotane is the only FDA-approved therapy for ACC. […] Through a quantitative high-throughput drug screen (qHTS), we identified auranofin (AF), a thioredoxin reductase (TXNRD) inhibitor, as a promising candidate drug. […]
Results filed as inconclusive are left out. Active and inactive are the calls of the source. The call rests on the fitted dose curve; in most records, active means well fitted cell-killing curve with a large enough effect; inconclusive means small, poorly fitted or top-dose-only effect; inactive means flat fitted curve, though single readings scatter.
Result type: Potency

CCS(=O)(=O)c1ccc(OC)c(C(=O)OC)c1: inactive
COc1ccccc1OCC(O)CO (stereo unspecified): inactive
CN1C(C)(C)CCCC1(C)C: inactive
O=C(NCC(O)CO)c1c(I)c(C(=O)NCC(O)CO)c(I)c(N(CCO)C(=O)CO)c1I (stereo unspecified): inactive
Cc1cnc(NC(=O)C2=C(O)c3ccccc3S(=O)(=O)N2C)s1: inactive

Batch lookup, Potency per entry.
1. NC(=O)c1ccc2nc(-c3ccc(Oc4ccc(Cl)cc4)cc3)[nH]c2c1
2. C[C@@H]1CCN(C(=O)[C@H](CCCN=C(N)N)NS(=O)(=O)c2cccc3c2NC[C@H](C)C3)[C@@H](C(=O)O)C1
3. CCCCC(C)(C)[C@H](O)C=C[C@H]1[C@H](O)CC(=O)[C@H]1CC=CCCCC(=O)O
4. CCOC(=O)N1CCN(/[N+]([O-])=N/Oc2ccc([N+](=O)[O-])cc2[N+](=O)[O-])CC1

RESULT:
1: 25.1 µM (active); 2: inactive; 3: inactive; 4: 22.4 µM (active)

Batch lookup, Potency per entry.
1. CC(C)(C)OC(=O)Nc1ccc(-c2cc(C(=O)NCCCCCCC(=O)NO)no2)cc1
2. CNCc1ccc(-c2[nH]c3cc(F)cc4c3c2CCNC4=O)cc1

RESULT:
1. 2.82 µM (active)
2. inactive

* * *

- Test protocol: Viability qHTS for spleen associated tyrosine kinase inhibitor (SYKi) naive MV4-11 cells (AID 1963823); further: nearly all actives have a fitted effect of over 40% in size
- Study conditions: MV4-11 AML viability, CellTiter-Glo luminescence, 72 h; series mostly up to 45 µM
Inconclusive results are not listed. Calls of active or inactive are those of the source. Calls come from the whole dose curve; as a rule, active = well fitted cell-killing curve with a large enough effect; inconclusive = small, poorly fitted or top-dose-only effect, or effect the other way; inactive = no such curve, though single readings can be large or run the other way.
Your answer must be one of the following: active, inactive

See these solved cases before continuing.
CC(C)C(C#N)O[C@@H]1O[C@H](CO[C@@H]2O[C@@H](C)[C@H](O)[C@@H](O)[C@H]2O)[C@@H](O)[C@H](O)[C@H]1O (stereo partly drawn): inactive
CC(=O)NC(C)c1ccc(Oc2ccc(OC(C)C)cc2)cc1 (stereo not drawn): active

QUERY: Name the outcome recorded for Nc1ncnc2c1ncn2[C@@H]1O[C@H](COP(=O)(O)O)[C@@H](O)[C@H]1O in the assay.
RESULT: inactive

QUERY: Also C=C1C(OC(C)=O)C(=O)C2C(C)(C)C(O)CCC2(C)C1CC(OC(C)=O)/C(C)=C/COC(C)=O (stereo not drawn) , if possible.
RESULT: inactive

QUERY: Also COc1cc(O)cc(C)c1C(=O)O[C@H]1[C@@H](OC(C)=O)[C@H](n2ccc(=O)[nH]c2=O)O[C@@H]1CO , if possible.
RESULT: inactive

QUERY: Also CCC(C)(O)C(O)C(=O)OCc1ccc(O[C@@H]2O[C@H](CO)[C@@H](O)[C@H](O)[C@H]2O)cc1 (stereo partly drawn) , if possible.
RESULT: inactive

* * *

- Test protocol: Viability qHTS for spleen associated tyrosine kinase inhibitor (SYKi) drug resistant MV4-11 cells (AID 1963824); further: nearly all actives have a fitted effect of over 35% in size
- Study conditions: SYKi-resistant MV4-11 viability, CellTiter-Glo, 72 h; series mostly up to 45 µM
Inconclusive results are not listed. The source made the active and inactive calls. Calls come from the whole dose curve; as a rule, active = well fitted cell-killing curve with a large enough effect; inconclusive = small, poorly fitted or top-dose-only effect, or effect the other way; inactive = no such curve, though single readings can be large or run the other way.
Result type: viability, % of control

Some entries whose results are on file:
CCC/C=C/C(=O)O[C@H]1CC(C)(C)CC2[C@]13[C@H](O)O[C@@]21CCC2[C@@]4(C)CC[C@H](O[C@@H]5O[C@H](C(=O)O)[C@@H](O)[C@H](O[C@@H]6O[C@H](CO)[C@H](O)[C@H](O)[C@H]6O[C@@H]6O[C@@H](C)[C@H](O)[C@@H](O)[C@H]6O[C@@H]6OC[C@](O)(CO)[C@H]6O)[C@H]5O[C@@H]5O[C@H](CO)[C@H](O)[C@H](O)[C@H]5O)C(C)(C)C4CC[C@@]2(C)[C@]1(C)C[C@H]3OC(C)=O (some centres not stated): 66.3% [at 9.25 µM] (inactive)
CC1(C)CC[C@]2(C(=O)O)[C@H](O)C[C@]3(C)C(=CCC4[C@@]5(C)CC[C@H](O[C@@H]6O[C@H](CO[C@@H]7OC[C@H](O)[C@H](O)[C@H]7O[C@@H]7OC[C@@H](O)[C@H](O)[C@H]7O)[C@@H](O)[C@H](O)[C@H]6O[C@@H]6O[C@H](CO)[C@@H](O)[C@H](O)[C@H]6O)C(C)(C)C5CC[C@]43C)[C@@H]2C1 (some centres not stated): 103% [at 9.25 µM] (inactive)
CC1(C)CCC2(C(=O)OC3OC(COC4OC(CO)C(O)C(O)C4O)C(O)C(O)C3O)CCC3(C)C(=CCC4C5(C)CCC(O)C(C)(C(=O)O)C5CCC43C)C2C1O (configuration not stated): 102% [at 9.25 µM] (inactive)
CC1OC(OC2C(CO)OC(OCC3OC(OC(=O)C45CCC(C)(C)CC4C4=CCC6C7(C)CCC(OC8OC(CO)C(O)C(OC9OC(CO)C(O)C(O)C9O)C8O)C(C)(C)C7CCC6(C)C4(C)CC5)C(O)C(O)C3O)C(O)C2O)C(O)C(O)C1OC1OC(CO)C(O)C(O)C1O (configuration not stated): 88.5% [at 9.25 µM] (inactive)
CC(C)=CC[C@H]1O[C@]2(O)C([C@H]3CCC4[C@@]5(C)CC[C@H](O[C@@H]6O[C@H](CO)[C@H](O)[C@H](O[C@@H]7O[C@H](CO)[C@@H](O)[C@H](O)[C@H]7O)[C@H]6O[C@@H]6O[C@@H](C)[C@H](O)[C@@H](O)[C@H]6O)C(C)(C)C5CC[C@@]4(C)[C@]3(C)[C@H]2O)[C@@]1(C)O (some centres not stated): 80.7% [at 9.25 µM] (inactive)

Batch lookup, viability, % of control per entry.
1. C[C@@H]1O[C@@H](O[C@@H]2[C@@H](O)[C@@H](O)[C@H](O[C@@H]3[C@@H](O)[C@@H](O[C@]4(CO)O[C@H](CO)[C@@H](O)[C@@H]4OC(=O)/C=C/c4ccc(O)cc4)O[C@H](CO)[C@H]3OC(=O)/C=C/c3ccc(O)cc3)O[C@H]2C)[C@H](O)[C@H](O)[C@H]1O
2. C/C=C(\C)C(=O)O[C@@H]1CC2[C@@H](CC=C3C[C@@H](O[C@H]4C[C@H](OC)[C@H](O[C@H]5C[C@H](OC)[C@H](O[C@@H]6O[C@H](C)[C@@H](O[C@H]7C[C@H](OC)[C@H](O[C@@H]8O[C@H](CO)[C@@H](O)[C@H](O)[C@H]8O)[C@@H](C)O7)[C@H](OC)[C@H]6O)[C@@H](C)O5)[C@@H](C)O4)CC[C@@]32C)[C@@]2(O)CC[C@H](C(C)=O)[C@@]12C (some centres not stated)

RESULT:
1: 117% [at 9.25 µM] (inactive); 2: 61.7% [at 9.25 µM] (inactive)

* * *

- System name: Cytochrome P450 3A7 (Homo sapiens)
- Test protocol: Cytochrome P450 family 3 subfamily A member 7 (CYP3A7) small molecule antagonists: luciferase biochemical qHTS assay (AID 1963596); further: on the % scale 0 is the no-effect control and ±100 the full control effect; nearly all actives have a fitted effect of over 40% in size
- Study conditions: P450-Glo CYP3A7 enzyme luminescence, 1 h; series mostly up to 57.4 µM
Records with an inconclusive call do not appear. Active and inactive are the calls of the source. The call rests on the fitted dose curve; in most records, active means well fitted inhibition curve with a large enough effect; inconclusive means small, poorly fitted or top-dose-only effect; inactive means no such curve, though single readings can be large or run the other way.
Result type: outcome

CC(C)(C)NCCCNC(=O)c1cccc(Br)c1: inactive
COc1ccccc1N1CCN(CC[C@@](C)(C(=O)C2CCCCC2)c2ccccc2)CC1: inactive
CC1(C)O[C@@H]2C[C@H]3[C@@H]4C[C@H](F)C5=CC(=O)C=C[C@]5(C)[C@@]4(F)[C@@H](O)C[C@]3(C)[C@]2(C(=O)CO)O1: inactive
Nc1ccn(C2CO[C@H](CO)O2)c(=O)n1 (stereo not given in full): inactive
Cc1ccc(-c2nnc(Nc3ccccc3)c3ccccc23)cc1S(=O)(=O)NCc1nc2ccccc2[nH]1: inactive

Batch lookup, outcome per entry.
1. COC(=O)c1ccc2c(c1)nc(NC(=O)c1ccccc1)n2CCCc1ccccc1
2. NC(CO)(CO)CO
3. On1ncc(C2CCNCC2)c1-c1cccc(-c2ccccc2)c1
4. NCCC(O)(P(=O)(O)O)P(=O)(O)O
5. COC(=O)N[C@@H](C)CNc1nccc(-c2cn(C(C)C)nc2-c2cc(Cl)cc(NS(C)(=O)=O)c2F)n1

RESULT:
1. inactive
2. inactive
3. inactive
4. inactive
5. inactive
